Assay Protocol: self-splicing fitness, log relative to wild type (ln ratio); higher = more splicing; Tetrahymena group I intron in knt gene, E. coli kanamycin selection, DiMSum; sequences stand for … in CUCUCU…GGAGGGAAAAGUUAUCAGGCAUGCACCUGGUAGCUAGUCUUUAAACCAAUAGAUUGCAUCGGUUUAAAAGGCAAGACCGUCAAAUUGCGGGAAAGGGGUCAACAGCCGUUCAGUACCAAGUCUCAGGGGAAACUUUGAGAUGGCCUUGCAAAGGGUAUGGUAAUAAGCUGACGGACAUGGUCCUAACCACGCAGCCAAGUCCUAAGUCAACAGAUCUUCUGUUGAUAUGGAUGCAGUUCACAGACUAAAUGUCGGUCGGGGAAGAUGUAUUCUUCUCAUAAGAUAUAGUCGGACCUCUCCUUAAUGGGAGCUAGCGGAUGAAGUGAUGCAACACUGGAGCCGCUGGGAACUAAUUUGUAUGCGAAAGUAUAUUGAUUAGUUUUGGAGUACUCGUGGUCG;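 note: selection with 25 µg/mL kanamycin versus none on LB agar overnight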
Assay Context: 30 °C
Label rule, in plain words: self-splicing fitness (ln) of -2 and up is class 1, under -2 is class 0.

>>> class_assignment("ACAGAGCAAUAUUACGCGCC")
"class 0"
>>> class_assignment("GUGCAGCAAUAUUACGGACU")
"class 1"
>>> class_assignment("UAGAAGCAAUAUUACGCCAG")
"class 1"
>>> class_assignment("CGAUAGCAAUAUUACGACUU")
"class 1"
>>> class_assignment("AGGUAGCAAUAUUACGAUGU")
"class 1"
>>> class_assignment("AGUGAGCAAUAUUACGCCAU")
"class 0"
>>> class_assignment("ACUAAGCAAUAUUACGCCGC")
"class 0"
>>> class_assignment("ACCCAGCAAUAUUACGCGCA")
"class 1"
>>> class_assignment("CGUCAGCAAUAUUACGCUGC")
"class 0"
>>> class_assignment("UAGCAGCAAUAUUACGCGAG")
"class 1"
>>> class_assignment("AUCUAGCAAUAUUACGGUAG")
"class 0"
>>> class_assignment("AUUAAGCAAUAUUACGGUGG")
"class 0"
>>> class_assignment("CUGCAGCAAUAUUACGUUCA")
"class 0"
>>> class_assignment("UUGAAGCAAUAUUACGACCA")
"class 1"
>>> class_assignment("CAAAAGCAAUAUUACGGGUC")
"class 0"
>>> class_assignment("GUCUAGCAAUAUUACGACGC")
"class 1"
>>> class_assignment("CCGGAGCAAUAUUACGGGCG")
"class 1"
>>> class_assignment("UGUAAGCAAUAUUACGCUAG")
"class 1"
>>> class_assignment("AACGAGCAAUAUUACGUGGG")
"class 0"
>>> class_assignment("CGCCAGCAAUAUUACGGUCC")
"class 1"
>>> class_assignment("AAGUAGCAAUAUUACGGGGA")
"class 0"
>>> class_assignment("ACUUAGCAAUAUUACGACCU")
"class 1"
>>> class_assignment("GUAUAGCAAUAUUACGGUUA")
"class 1"
